Assignment: determine reported Semi-quantitative analysis of proteins binding to different plaque particles: Synuclein for the given molecules.
# target: T1, alpha-synuclein plaque particles (Homo sapiens, UniProt P37840)
# T1 construct: 140 amino acids polypeptide
# experimentDescription: Mass spectroscopy proteomics, semi-quantitative binding affinity of serum proteins (plaqueproteome, Table 2)
# studyConditions: higher number = stronger affinity
Form field (numeric): enter value without unit.

Please fill in: Semi-quantitative analysis of proteins binding to different plaque particles: Synuclein reported for Zinc-alpha-2-glycoprotein (protein) QENQDGRYSLTYIYTGLSKHVEDVPAFQALGSLNDLQFFRYNSKDRKSQPMGLWRQVEGMEDWKQDSQLQKAREDIFMETLKDIVEYYNDSNGSHVLQGRFGCEIENNRSSGAFWKYYYDGKDYIEFNKEIPAWVPFDPAAQITKQKWEAEPVYVQRAKAYLEEECPATLRKYLKYSKNILDRQDPPSVVVTSHQAPGEKKKLKCLAYDFYPGKIDVHWTRAGEVQEPELRGDVLHNGNGTYQSWVVVAVPPQDTAPYSCHVQHSSLAQPLVVPWEAS = 7

Please fill in: Semi-quantitative analysis of proteins binding to different plaque particles: Synuclein reported for Alpha-1-acid glycoprotein 2 (protein) QIPLCANLVPVPITNATLDRITGKWFYIASAFRNEEYNKSVQEIQATFFYFTPNKTEDTIFLREYQTRQNQCFYNSSYLNVQRENGTVSRYEGGREHVAHLLFLRDTKTLMFGSYLDDEKNWGLSFYADKPETTKEQLGEFYEALDCLCIPRSDVMYTDWKKDKCEPLEKQHEKERKQEEGES = 10

Please fill in: Semi-quantitative analysis of proteins binding to different plaque particles: Synuclein reported for Ig heavy chain V-III region WEA (protein) EVQLVESGGGLVQPGGSLRLSCAASGFTFSSYEMNWVRQAPGKGLEWVSYISSSGSTIYYADSVKGRFTISRDNAKNSLYLQMNSLRAEDTAVYYCAR = 1
